Where these numbers come from: patent EP0516186A2

measurement protocol: Cellular toxicity in H9 cells (cell multiplication)
Assay type: cell-based
conditions used: human, number of cells after 48 hrs, 50 % inhibition of cell multiplication, read-out: TC₅₀(µM) H9
property name: CC50 at 48 h (µM)

cpd_smiles=CCc1cn([C@@H]2C[C@H](F)[C@@H](CO)O2)c(=O)[nH]c1=O numeric_value=400
